# targetSystem: 5HT1A (Rattus norvegicus, UniProt P19327)
# Construct: Cerebral cortex + hippocampus from each rat was dissected and homogenized; from tissue; host or cells: rat cerebral cortex + hippocampus homogenate
# Sequence (P19327 whole entry): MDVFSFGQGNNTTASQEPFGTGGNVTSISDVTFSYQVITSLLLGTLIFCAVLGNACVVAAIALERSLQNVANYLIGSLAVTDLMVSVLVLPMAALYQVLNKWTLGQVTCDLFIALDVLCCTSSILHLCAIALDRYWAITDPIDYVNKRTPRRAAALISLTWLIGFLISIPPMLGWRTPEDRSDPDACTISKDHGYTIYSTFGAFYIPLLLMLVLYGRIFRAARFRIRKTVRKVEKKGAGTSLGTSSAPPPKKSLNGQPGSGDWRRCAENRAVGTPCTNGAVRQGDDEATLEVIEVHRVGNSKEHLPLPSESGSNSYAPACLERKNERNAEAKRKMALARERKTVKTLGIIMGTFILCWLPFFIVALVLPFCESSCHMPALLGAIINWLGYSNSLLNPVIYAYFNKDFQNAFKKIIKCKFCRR
# experimentalProtocol: 5HT1A binding assay (receptor binding, 3H-8-OH-DPAT, rat cerebral cortex + hippocampus)
# details: 3H-8-OH-DPAT (0.25 to 8 nM), rat cerebral cortex + hippocampus homogenate, 37° C., 10 min, pH 7.5
# Protocol: Another observation is that some of these compounds have a particularly good oral bioavailability. In order to evaluate the affinity for this subgroup of/the 5-HT-receptors, the effects on various receptors in rat brain were measured in vitro using receptor assays (Ki nM). […] The binding assay followed that described by Peroutka, J. Neurochem. […] Six different concentrations of ^3 H-8-OH-DPAT were analyzed. […] Non-specific binding was measured by the addition of 10 μM 5-HT to the reaction mixture. […]
Structures can show the parent of a compound that is named as a salt.
Listed here are molecules together with their documented Ki.

The cases that follow already have their Ki on record.
CCCN(CCC)C1CCc2cccc(-c3ccco3)c2C1 (racemic) [Example 11, oxalate]	1.5 nM
CCCN(CCC)C1CCc2cccc(C(C)=O)c2C1 (single isomer, unassigned; (+)) [Example 6, hydrochloride]	1.7 nM

Now turn to the next molecule.
The reported Ki of the molecule CCCN(CCC)C1CCc2cccc(C(C)=O)c2C1 (racemic) [Example 2, hydrochloride] was 0.9 nM
